# target_or_system: GRP Receptor (Rattus norvegicus)
# Construct: from tissue; host or cells: dispersed pancreatic acini
# Sequence (P52500 whole entry): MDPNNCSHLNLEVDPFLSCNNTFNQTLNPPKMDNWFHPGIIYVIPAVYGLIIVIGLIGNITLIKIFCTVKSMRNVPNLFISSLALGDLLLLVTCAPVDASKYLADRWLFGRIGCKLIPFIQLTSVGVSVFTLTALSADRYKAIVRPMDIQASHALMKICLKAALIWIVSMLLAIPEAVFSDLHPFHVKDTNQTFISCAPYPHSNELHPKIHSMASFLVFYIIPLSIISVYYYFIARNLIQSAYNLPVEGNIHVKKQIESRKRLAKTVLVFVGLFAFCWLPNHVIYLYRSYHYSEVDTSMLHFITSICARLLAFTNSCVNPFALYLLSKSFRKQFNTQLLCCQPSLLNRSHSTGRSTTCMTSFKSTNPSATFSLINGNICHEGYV
# assay_comment: Amylase release from rat pancreatic acini
# Type: cell-based
# condition_set: analog 10 µM alone; no-additive control 4 ± 1
Where a SMILES comes first, the peptide text is derived from it. Bridges are numbered along the chain shown (N, C = ends). [ ]: non-standard residue; d: D form. 2Nal = N[C@@H](Cc1ccc2ccccc2c1)C(=O)O; d2Nal = N[C@H](Cc1ccc2ccccc2c1)C(=O)O; Lys(Et2) = CCN(CC)CCCC[C@H](N)C(=O)O; Lys(iPr) = CC(C)NCCCC[C@H](N)C(=O)O
Entries and their measured Rat Pancreatic Acini Amylase Release Alone (10µM) follow.
test_readout: Rat Pancreatic Acini Amylase Release Alone (10µM) (% total)

>>> recorded_result("CCN(CC)CCCC[C@@H]1NC(=O)[C@@H](Cc2c[nH]c3ccccc23)NC(=O)[C@H](Cc2ccc(O)cc2)NC(=O)[C@@H](NC(=O)[C@H](N)Cc2ccccc2)CSSC[C@@H](C(=O)N[C@@H](Cc2ccc3ccccc3c2)C(N)=O)NC(=O)[C@H]([C@@H](C)O)NC1=O [Analog #16] (H-[dF]CY[dW][Lys(Et2)]TC[2Nal]-NH2; disulfide 2-7; N-terminus assumed)")
5
>>> recorded_result("C[C@@H](O)[C@@H]1NC(=O)[C@H](CCCCN)NC(=O)[C@@H](Cc2c[nH]c3ccccc23)NC(=O)[C@H](Cc2ccc(O)cc2)NC(=O)[C@@H](NC(=O)[C@H](N)Cc2ccccc2)CSSC[C@@H](C(=O)N[C@@H](Cc2ccc3ccccc3c2)C(N)=O)NC1=O [Analog #7, [D-Phe^1, Thr^6]-cyclo-SS-octa] (H-[dF]CY[dW]KTC[2Nal]-NH2; disulfide 2-7; N-terminus assumed)")
3
>>> recorded_result("CC(C)[C@@H]1NC(=O)[C@H](CCCCN)NC(=O)[C@@H](Cc2c[nH]c3ccccc23)NC(=O)[C@H](Cc2ccc(O)cc2)NC(=O)[C@@H](NC(=O)[C@H](N)Cc2ccc3ccccc3c2)CSSC[C@H](C(=O)N[C@@H](Cc2ccc3ccccc3c2)C(N)=O)NC1=O [Analog #11, [D-Cys^7]-cyclo SS-octa] (H-[d2Nal]CY[dW]KV[dC][2Nal]-NH2; disulfide 2-7; N-terminus assumed)")
2
>>> recorded_result("CC(C)NCCCC[C@@H]1NC(=O)[C@@H](Cc2c[nH]c3ccccc23)NC(=O)[C@H](Cc2ccc(O)cc2)NC(=O)[C@@H](NC(=O)[C@H](N)Cc2ccccc2)CSSC[C@@H](C(=O)N[C@@H](Cc2ccc3ccccc3c2)C(N)=O)NC(=O)[C@H]([C@@H](C)O)NC1=O [Analog #15] (H-[dF]CY[dW][Lys(iPr)]TC[2Nal]-NH2; disulfide 2-7; N-terminus assumed)")
4
>>> recorded_result("C[C@@H](O)[C@H](NC(=O)[C@@H]1CSSC[C@H](NC(=O)[C@H](N)Cc2ccc3ccccc3c2)C(=O)N[C@@H](Cc2ccc(O)cc2)C(=O)N[C@H](Cc2c[nH]c3ccccc23)C(=O)N[C@@H](CCCCN)C(=O)N[C@@H](Cc2ccc3ccccc3c2)C(=O)N1)C(N)=O [Analog #2, [Nal^6,Thr^8]-cyclo SS-octa]")
5
>>> recorded_result("CC(C)[C@@H]1NC(=O)[C@H](CCCCN)NC(=O)[C@@H](Cc2c[nH]c3ccccc23)NC(=O)[C@H](Cc2ccc(O)cc2)NC(=O)[C@H](NC(=O)[C@H](N)Cc2ccc3ccccc3c2)CSSC[C@@H](C(=O)N[C@@H](Cc2ccc3ccccc3c2)C(N)=O)NC1=O [Analog #10, [D-Cys^2]-cyclo SS-octa] (H-[d2Nal][dC]Y[dW]KVC[2Nal]-NH2; disulfide 2-7; N-terminus assumed)")
3
